All values here come from patent US20230212123A1.

biological target: GCS in MDCKII cells (Canis lupus familiaris, UniProt A0A8I3MXG6); construct: whole cellular lipids of wild type MDCKII cells were extracted; endogenous in cells; host or cells: wild type MDCKII cells; experiment: GCS inhibition in MDCKII cells (glucosylceramide content after 24 h); format: cell-based, canine; details: 24 hours exposure, glucosylceramide level
Sequence (A0A8I3MXG6 1-394): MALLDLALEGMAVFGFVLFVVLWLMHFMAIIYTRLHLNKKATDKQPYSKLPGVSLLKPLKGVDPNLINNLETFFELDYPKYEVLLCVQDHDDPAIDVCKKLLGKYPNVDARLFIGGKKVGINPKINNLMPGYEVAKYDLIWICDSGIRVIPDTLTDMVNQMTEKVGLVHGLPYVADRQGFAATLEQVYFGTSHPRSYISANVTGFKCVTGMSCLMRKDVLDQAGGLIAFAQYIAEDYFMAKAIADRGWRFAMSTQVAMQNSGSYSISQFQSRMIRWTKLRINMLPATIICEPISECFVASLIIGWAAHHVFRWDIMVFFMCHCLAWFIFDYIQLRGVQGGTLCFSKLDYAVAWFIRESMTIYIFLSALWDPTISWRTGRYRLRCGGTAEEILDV
Reported pIC50 values follow for various compounds
Remember the convention: pIC50 equals -log10 of concentration in molar.

Sample answers from the record:
>>> measured_result("O=C(CC1Cc2ccccc2C1)N[C@H](CN1CCCC1)[C@H](O)c1ccnc(Cl)c1 [Example 27]")
7.18
>>> measured_result("COc1ccnc([C@@H](O)[C@@H](CN2CCCC2)NC(=O)CC2Cc3ccccc3C2)c1 [Example 12]")
7.10
>>> measured_result("O=C(CC1Cc2ccccc2C1)N[C@H](CN1CCCC1)[C@H](O)c1ccc(OCC(F)(F)F)cn1 [Example 6]")
8.62
>>> measured_result("O=C(CC1Cc2ccccc2C1)N[C@H](CN1CCCC1)[C@H](O)c1cccc(Cl)n1 [Example 20]")
7.21
>>> measured_result("COc1ccc([C@@H](O)[C@@H](CN2CC3CC3C2)NC(=O)CC2Cc3ccccc3C2)nc1 (some centres unmarked) [Example 15]")
8.03

Q) # return recorded pIC50 for input COc1cccc([C@@H](O)[C@@H](CN2CCCC2)NC(=O)CC2Cc3ccccc3C2)n1 [Example 3]
A) 7.52

Q) Input CC(C)(C)Oc1ccc([C@@H](O)[C@@H](CN2CCCC2)NC(=O)CC2Cc3ccccc3C2)nc1 [Example 17] , output reported pIC50.
A) 8.34
